Reported inhibition values follow for various compounds
Test: inhibitors of poly I:C-induced TLR3 signaling, primary screen, cell-based, poly I:C stimulus, luciferase, 10K MLSCN set (AID 602277)
Conditions: HEK293-TLR3 RL24 IRF3 luciferase reporter, at 10 µM, stronger effect = higher value

compound: CC(=O)Oc1cccc2c1C(=O)c1c(OC(C)=O)cc(C(=O)O)cc1C2=O
inhibition, %: 26.5
--
compound: COC(=O)CC1SC(=O)NC1=O (stereo not drawn)
inhibition, %: 8.22
--
compound: CN(C(=O)C(Cl)Cl)c1ccc(OC(=O)c2ccco2)cc1
inhibition, %: 44.8
--
compound: CN1CCN(C2=Nc3ccccc3Oc3ccc(Cl)cc32)CC1
inhibition, %: 41.9
--
compound: COC(=O)CNC(=O)c1c(C)cc(=O)oc1C
inhibition, %: 12
--
compound: CC(C)(Oc1ccc(CCNC(=O)c2ccc(Cl)cc2)cc1)C(=O)O
inhibition, %: 22.2
--
compound: CCN1CCc2c(C#N)c(N3CCCCC3)nc(NCc3ccccc3)c2C1
inhibition, %: 31.2
--
compound: CN=c1sc2ccccc2n1CC(O)COCc1ccco1 (stereo not drawn)
inhibition, %: 29.1
--
compound: CC(CN1CCN(C)CC1)OC(=O)c1ccc(Cl)cc1Cl (stereo not drawn)
inhibition, %: 23.1
--
compound: COc1cc([C@@H]2c3cc4c(cc3[C@H](O)[C@H]3COC(=O)[C@H]23)OCO4)cc(OC)c1OC
inhibition, %: 81.6
--
compound: NC(CO)C(=O)NNCc1ccc(O)c(O)c1O (stereo not drawn)
inhibition, %: 29.4
--
compound: CC1(C(=O)CSc2nc3ccccc3s2)CCC(=O)O1 (stereo not drawn)
inhibition, %: 21.8
--
compound: CC(C)(C)c1ccc(O)c(N)c1
inhibition, %: 18
--
compound: CC(=O)[C@@]1(O)CC[C@H]2[C@@H]3CCC4=CC(=O)CC[C@]4(C)[C@H]3[C@@H](O)C[C@@]21C
inhibition, %: 38.5
--
compound: CCOC(=O)CNC(=O)Nc1ccccc1C(=O)OC
inhibition, %: 18.3
--
compound: COc1cccc(NC(=O)CC2SC(=Nc3ccccc3)NC2=O)c1 (stereo not drawn)
inhibition, %: 97.6
--
compound: N#Cc1nc(COc2ccc(Br)cc2)oc1N1CCCC1
inhibition, %: 1.37
--
compound: CC(=O)OCC(=O)[C@H]1CC[C@H]2[C@@H]3CCC4=CC(=O)CC[C@]4(C)[C@H]3CC[C@]12C
inhibition, %: 25.6
--
compound: O=C(O)Cc1cc(I)c(Oc2ccc(O)c(I)c2)c(I)c1
inhibition, %: -273
--
compound: C=CCn1cnc2c(c1=O)c1nc3ccccc3nc1n2-c1ccc(C)cc1
inhibition, %: 10
--
compound: COc1ccc(Cl)cc1C(=O)NCCc1ccc(S(=O)(=O)NC(=O)NC2CCCCC2)cc1
inhibition, %: 42.8
--
compound: COc1cccc(N2C(=O)C(O)=C(C(C)=O)C2c2ccc(OC)c(OC)c2)c1 (stereo not drawn)
inhibition, %: -0.11
--
compound: Cn1c(=O)n(Cc2ccccc2)c(=O)c2c1nc(NCC1CCCO1)n2Cc1ccccc1 (stereo not drawn)
inhibition, %: -6.2

###

Assay: inhibitors of Sendai virus-induced IRF3 signaling, primary screen, TLR/RLR signaling modifier project, cell-based, Sendai virus stimulus, luciferase, 10K MLSCN set (AID 602276);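 note: firefly luciferase from ISG56 promoter only with Renilla not read in this screen; 0% = Sendai virus plus DMSO and 100% = medium plus DMSO without virus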
Details: HEK293 RL24 IRF3 luciferase reporter, at 10 µM, stronger effect = higher value
Listing: inhibition of selected molecules
assay.readout: inhibition (%)

molecule: CCOC(=O)CC(C#N)c1cn(C)c2ccccc12 (stereo not drawn)
assay.readout: inhibition
output.unit: %
numeric.result: 21.5
--
molecule: CCCNC(=O)NS(=O)(=O)c1ccc(Cl)cc1
assay.readout: inhibition
output.unit: %
numeric.result: -0.0514
--
molecule: C[C@H]1C[C@@H]2[C@H]([C@@H](O)C[C@@]3(C)[C@H]2CC[C@]3(O)C(=O)CO)[C@@]2(C)C=CC(=O)C=C12
assay.readout: inhibition
output.unit: %
numeric.result: 11.3
--
molecule: O=C(C1CCN(c2nnc(-n3cccc3)s2)CC1)N1CCc2ccccc2C1
assay.readout: inhibition
output.unit: %
numeric.result: 0.226
--
molecule: Cc1ccc(S(=O)(=O)N2CCN(c3nc(C(C)C)c4c(c3C#N)CC(C)(C)OC4)CC2)cc1
assay.readout: inhibition
output.unit: %
numeric.result: -1.31
--
molecule: CCOC(=O)C1CCN(C(C)=C2C(=O)c3ccccc3C2=O)CC1
assay.readout: inhibition
output.unit: %
numeric.result: 6.04
--
molecule: NC(CO)C(=O)NNCc1ccc(O)c(O)c1O (stereo not drawn)
assay.readout: inhibition
output.unit: %
numeric.result: 8.18
--
molecule: CCN(CC)CCN1C(=O)C(O)=C(C(=O)c2cccs2)C1c1ccccn1 (stereo not drawn)
assay.readout: inhibition
output.unit: %
numeric.result: 4.53
--
molecule: O=S(=O)(NCc1cccnc1)c1cccc2nsnc12
assay.readout: inhibition
output.unit: %
numeric.result: 15.1
--
molecule: COc1cc(NC(=O)NC(C)(C(F)(F)F)C(F)(F)F)cc(OC)c1OC
assay.readout: inhibition
output.unit: %
numeric.result: 10.8
--
molecule: COc1cc2[nH]c3c(=O)n(CCN(C(C)C)C(C)C)cnc3c2cc1OC
assay.readout: inhibition
output.unit: %
numeric.result: 10.1
--
molecule: Nc1nc(NC(=O)c2cccs2)nn1-c1ccccc1
assay.readout: inhibition
output.unit: %
numeric.result: -31.7
--
molecule: COc1cccc(N2CCN(c3ncnc4c3[nH]c3ccc(F)cc34)CC2C)c1 (stereo not drawn)
assay.readout: inhibition
output.unit: %
numeric.result: 2.95
--
molecule: COc1ccc(C2(CN(C(C)=O)C(C)=O)CCCC2)cc1OC
assay.readout: inhibition
output.unit: %
numeric.result: 1.22
--
molecule: CCSc1nc(O)c(C2OC(=O)c3c2ccc(OC)c3OC)c(=O)n1-c1ccccc1 (stereo not drawn)
assay.readout: inhibition
output.unit: %
numeric.result: 13.8
--
molecule: CCOc1c(C)cc2[nH]c(CCC(=O)O)nc2c1C
assay.readout: inhibition
output.unit: %
numeric.result: 8.15
--
molecule: COc1ccc(OC)c(C2=Nn3c(nnc3C3CCCCC3)SC2)c1
assay.readout: inhibition
output.unit: %
numeric.result: 5.58
--
molecule: O=C(O)CC1SC(=Nc2cccc(C(F)(F)F)c2)NC1=O (stereo not drawn)
assay.readout: inhibition
output.unit: %
numeric.result: 19.6
--
molecule: O=C(O)c1ccccc1S
assay.readout: inhibition
output.unit: %
numeric.result: 6.85
--
molecule: CCC(=O)N[C@@H]1CC(C(C)(C)NC(=O)CC)CC=C1C (stereo partly drawn)
assay.readout: inhibition
output.unit: %
numeric.result: 18.2
--
molecule: CCN(CC)CCN1C(=O)C(=O)/C(=C(/O)c2ccc(OC(C)C)cc2)C1c1ccncc1 (stereo not drawn)
assay.readout: inhibition
output.unit: %
numeric.result: 8.32
--
molecule: CSC1=C(C#N)C(C)CC(=O)N1 (stereo not drawn)
assay.readout: inhibition
output.unit: %
numeric.result: 13.8
--
molecule: CC(C)c1nc(NCC2CCCO2)c(C#N)c2c1COC(C)(C)C2 (stereo not drawn)
assay.readout: inhibition
output.unit: %
numeric.result: 20.5

Hello, the source for this data is PubChem BioAssay, in case you need it.
